From: PubChem BioAssay (EPA / NIEHS)

Read-out: Glutathione S-Transferase (GSTA2), GSTA2 (gene 2939)
assayDetails: LTEA_HepaRG_GSTA2: Life Technologies and Expression Analysis (LTEA) Assay for Glutathione S-Transferase (GSTA2) using HepaRG (AID 2283497)
experimentalSetup: mRNA level, 48 h; actives raise or lower the signal
Active and inactive are the calls of the source. The calls were made as follows: active = hit-call score of the fitted dose curve at least 0.9, where 1 is the maximum; inactive = score below 0.9.
Result category, one only: active, inactive

INSERT INTO results (compound, cat) VALUES
  ('O=C1c2ccccc2C(=O)N1SC(Cl)(Cl)Cl', 'inactive'),
  ('CC(C)(C)C(O)/C(=C\c1ccc(Cl)cc1Cl)n1cncn1 (centres undefined)', 'active'),
  ('O=[N+]([O-])c1c(Cl)c(Cl)c(Cl)c(Cl)c1Cl', 'inactive'),
  ('CCCN(CCC)c1c([N+](=O)[O-])cc(C(F)(F)F)cc1[N+](=O)[O-]', 'inactive'),
  ('CNC(=O)Oc1ccccc1OC(C)C', 'inactive');

Lookup: # fetch the recorded call for O=S1OCC2C(CO1)C1(Cl)C(Cl)=C(Cl)C2(Cl)C1(Cl)Cl (centres undefined) here
Found: active

Lookup: # fetch the recorded call for COc1nn(CSP(=S)(OC)OC)c(=O)s1 here
Found: inactive
